Reported T½ Max (seconds), coagulation of human plasma values for the following binders.
- Target: Innovin, lyophilized recombinant human tissue factor combined with phospholipids (human, UniProt P13726 33-295, limits assumed); note: test concentration or dose not given here
- Experiment Summary: cell-based or functional assay
Give the value, in units of s, as a plain number.

• M1598 (antibody, V domains shown, complete MAb; FR4 is its own entry; also called H137/L3) VH: EVQLVQSGAEVKKPGESLRISCKGSGYTFTPYWIEWVRQMPGKGLEWMGDILPGTGYTVYSPSFQGHVTISADKSISTAYLQWSSLKASDTAMYYCARSGYYGNSGFAYWGQGTLVTVSS VL: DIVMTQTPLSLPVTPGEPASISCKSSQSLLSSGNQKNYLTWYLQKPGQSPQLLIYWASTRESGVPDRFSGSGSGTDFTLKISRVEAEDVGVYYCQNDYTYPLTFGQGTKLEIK = 155

Recorded result, M59 (antibody, V domains shown, FR4 is its own entry; also called H22/L3) VH: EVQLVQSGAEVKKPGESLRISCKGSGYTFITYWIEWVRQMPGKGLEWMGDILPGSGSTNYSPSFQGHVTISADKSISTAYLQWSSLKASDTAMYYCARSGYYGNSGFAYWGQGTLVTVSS VL: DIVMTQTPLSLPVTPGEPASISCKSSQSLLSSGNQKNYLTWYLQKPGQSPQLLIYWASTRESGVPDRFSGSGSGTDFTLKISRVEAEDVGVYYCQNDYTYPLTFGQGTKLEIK , T½ Max (seconds), coagulation of human plasma: 169
